Target: Galanin receptor type 2 (Homo sapiens) (UniProt O43603)
Sequence (O43603 whole entry, looked up): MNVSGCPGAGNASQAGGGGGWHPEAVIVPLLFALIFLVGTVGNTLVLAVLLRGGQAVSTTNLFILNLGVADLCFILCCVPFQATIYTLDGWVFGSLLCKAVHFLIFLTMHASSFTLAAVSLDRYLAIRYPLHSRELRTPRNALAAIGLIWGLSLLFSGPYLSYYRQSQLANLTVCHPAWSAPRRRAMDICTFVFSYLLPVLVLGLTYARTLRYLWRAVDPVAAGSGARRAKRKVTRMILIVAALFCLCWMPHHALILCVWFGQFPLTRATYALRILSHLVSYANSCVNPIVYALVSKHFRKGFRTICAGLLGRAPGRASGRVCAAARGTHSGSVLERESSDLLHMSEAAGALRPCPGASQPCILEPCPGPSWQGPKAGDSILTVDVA
Experiment: GALR2 antagonists, retest of hits, confirmation, cell-based (AID 866);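 note: cells stimulated with galanin at about its EC80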
Settings: GALR2-expressing cells, antagonist mode, at 4 µM, hits give high values
This is one part of the list.
Threshold rule: inhibition greater than or equal to 30% is 1; below that, -1.

compound=CN(C)S(=O)(=O)c1cccc(NC(=O)COC(=O)C2(c3ccccc3F)CCCC2)c1 label_class=-1
compound=COC(=O)Cc1cc(=O)oc2c(C)c(O)ccc12 label_class=-1
compound=O=C(Nc1ccccc1)c1nnsc1S(=O)(=O)c1ccc(Cl)cc1 label_class=1
compound="CCc1ccc2c(c1)C1(NN=C(c3ccccc3)S1)C(=O)N2 (stereo unspecified)" label_class=-1
compound="COc1ccccc1N1N=C(c2cccs2)CC1c1ccccc1 (stereo unspecified)" label_class=-1
compound=FC(F)(F)c1cnc(Oc2ccccc2-c2nnc(-c3ccc(Cl)cc3)o2)c(Cl)c1 label_class=-1
compound="COCC(C)NC(=O)c1ccc(Cl)c(Cl)c1 (stereo unspecified)" label_class=-1
compound=O=C(NC(Nc1nc2ccc([N+](=O)[O-])cc2s1)(C(F)(F)F)C(F)(F)F)c1ccccc1 label_class=1
compound=COc1ccc(C)cc1NC(=O)c1[nH]c(C)c(C(C)=O)c1C label_class=-1
compound=COc1ccc(/C=C/C(=O)Nc2ccc(C34CC5CC(CC(O)(C5)C3)C4)cc2)cc1OC label_class=1
compound="Cc1nnnn1/C(=C\\c1ccccc1)C(=O)OCC(=O)N1CC2(C)CC1CC(C)(C)C2 (stereo unspecified)" label_class=1

----------
Biological target: Nuclear receptor coactivator 3 (Homo sapiens)
Assay: SRC3 coactivator transcriptional activity inhibitors, confirmation, cell-based, luminescence, quadruplicate (AID 588792);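 note: 0% = DMSO treated cells and 100% = gossypol at 36 µM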
Settings: HEK293 GAL4-SRC3 luciferase reporter, at 3.6 µM, hits give high values
assay.readout: inhibition (%)

compound=COc1cccc2nc3c(C(=O)NCCN(C)C)cccc3cc12 experimental_target="Nuclear receptor coactivator 3 (Homo sapiens)" assay_readout=inhibition obs_value=35.9
compound=Cc1ccc(-n2c(C)c([N+](=O)[O-])c3ccc(O)c(CN(C)C)c32)cc1 experimental_target="Nuclear receptor coactivator 3 (Homo sapiens)" assay_readout=inhibition obs_value=76.7
compound=COc1ccccc1C(=O)Nc1nc2ccccc2s1 experimental_target="Nuclear receptor coactivator 3 (Homo sapiens)" assay_readout=inhibition obs_value=85.4
compound=Nc1nc(/C=C/c2cccnc2)nc(-c2ccccc2O)n1 experimental_target="Nuclear receptor coactivator 3 (Homo sapiens)" assay_readout=inhibition obs_value=-12.6
compound=Cc1cc(=O)oc2cc(NC(=O)COc3cccc(C(F)(F)F)c3)ccc12 experimental_target="Nuclear receptor coactivator 3 (Homo sapiens)" assay_readout=inhibition obs_value=7.34
compound=O=C(C1CCC1)N1CCN(c2ccnc3cc(Cl)ccc23)CC1 experimental_target="Nuclear receptor coactivator 3 (Homo sapiens)" assay_readout=inhibition obs_value=17
compound=COc1ccc(C(=O)Nc2c(-c3cccs3)c(=O)c3ccccc3n2C)cc1 experimental_target="Nuclear receptor coactivator 3 (Homo sapiens)" assay_readout=inhibition obs_value=-10.2
compound=CN(C)c1ccc(CNC(=O)CCNS(=O)(=O)c2cc(Br)cnc2N)cc1 experimental_target="Nuclear receptor coactivator 3 (Homo sapiens)" assay_readout=inhibition obs_value=31.5
compound=COc1cccc(C(=O)Oc2c(Br)cc(Br)cc2/C=N/NC(=O)c2cc(C)[nH]n2)c1 experimental_target="Nuclear receptor coactivator 3 (Homo sapiens)" assay_readout=inhibition obs_value=18.3
compound="O=c1[nH]c(=O)n(C2OC(CO)C(O)C2O)cc1F (configuration not stated)" experimental_target="Nuclear receptor coactivator 3 (Homo sapiens)" assay_readout=inhibition obs_value=57.4
compound=C/C(=N\NC(=O)c1nnn(-c2nonc2N)c1-c1ccccc1)c1ccccc1O experimental_target="Nuclear receptor coactivator 3 (Homo sapiens)" assay_readout=inhibition obs_value=49.2
compound=COC(=O)c1c(C)n(-c2ccc(OC)cc2)c2ccc(O)cc12 experimental_target="Nuclear receptor coactivator 3 (Homo sapiens)" assay_readout=inhibition obs_value=41.4
compound=COC(=O)c1ccccc1-c1ccc(C(c2c(C)[nH][nH]c2=O)c2c(C)[nH][nH]c2=O)o1 experimental_target="Nuclear receptor coactivator 3 (Homo sapiens)" assay_readout=inhibition obs_value=22.8
compound=CCc1c(C#N)sc(C(N)=O)c1CC experimental_target="Nuclear receptor coactivator 3 (Homo sapiens)" assay_readout=inhibition obs_value=27.8
compound=COc1cccc(Nc2ncnc3ccc(Br)cc23)c1 experimental_target="Nuclear receptor coactivator 3 (Homo sapiens)" assay_readout=inhibition obs_value=43.5
compound=COc1ccc(-n2ncc3c(N4CCCCC4)ncnc32)cc1 experimental_target="Nuclear receptor coactivator 3 (Homo sapiens)" assay_readout=inhibition obs_value=51.2
compound="CCOc1cc(/C=C2\\N=C(SC(C)C(N)=O)N(c3ccc(OC(F)F)cc3)C2=O)ccc1O (configuration not stated)" experimental_target="Nuclear receptor coactivator 3 (Homo sapiens)" assay_readout=inhibition obs_value=27.6
compound="O=C(CCl)Nc1cc(SCC(O)CO)cc([N+](=O)[O-])c1 (configuration not stated)" experimental_target="Nuclear receptor coactivator 3 (Homo sapiens)" assay_readout=inhibition obs_value=91.6
compound=c1ccc(CN2CCN(c3ncnc4c3[nH]c3ccccc34)CC2)cc1 experimental_target="Nuclear receptor coactivator 3 (Homo sapiens)" assay_readout=inhibition obs_value=8.1
compound="CCOC(=O)c1cnc(SC2CC(=O)N(c3cccc(OC)c3)C2=O)nc1N (configuration not stated)" experimental_target="Nuclear receptor coactivator 3 (Homo sapiens)" assay_readout=inhibition obs_value=9.15
compound=CC(NC(=O)Nc1nnc(C(F)(F)F)s1)(C(F)(F)F)C(F)(F)F experimental_target="Nuclear receptor coactivator 3 (Homo sapiens)" assay_readout=inhibition obs_value=52.9
compound=Nc1ncn([C@@H]2O[C@H](CO)[C@@H](O)[C@H]2O)c(=O)n1 experimental_target="Nuclear receptor coactivator 3 (Homo sapiens)" assay_readout=inhibition obs_value=76.7
